# credit: ChEMBL document CHEMBL1134731

experimental_details: in vivo
experimental_conditions: eutheria, po
quantity_measured: bioavailability (%)
API: value field is a number in %; no unit string.

## Input Would you kindly share the measured bioavailability for "Cc1nc2ccc(NC(=O)Nc3ccnc4cccnc34)cc2o1" ?
## Output 10

----------
measured_on: Orexin/Hypocretin receptor type 1 (Homo sapiens)
Sequence (whole entry): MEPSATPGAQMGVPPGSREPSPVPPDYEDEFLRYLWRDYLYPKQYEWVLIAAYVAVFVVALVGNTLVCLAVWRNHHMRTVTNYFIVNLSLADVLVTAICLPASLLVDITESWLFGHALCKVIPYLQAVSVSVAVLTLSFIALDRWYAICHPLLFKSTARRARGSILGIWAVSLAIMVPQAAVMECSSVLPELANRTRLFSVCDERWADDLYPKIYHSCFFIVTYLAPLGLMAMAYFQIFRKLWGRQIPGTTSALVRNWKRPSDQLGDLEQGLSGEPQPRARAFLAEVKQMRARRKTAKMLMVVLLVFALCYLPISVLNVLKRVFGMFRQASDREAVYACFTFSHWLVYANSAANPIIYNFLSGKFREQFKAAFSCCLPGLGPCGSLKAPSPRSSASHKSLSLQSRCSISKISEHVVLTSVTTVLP
experimental_details: Binding affinity towards orexin receptor type 1.
quantity_measured: pKb

## Input I am curious: what pKb value has been reported for "O=C(Nc1ccc(N2CCCC2)cc1)Nc1ccnc2ccccc12" ?
## Output 6.4

## Input Further, for "Cn1ccc2cc(NC(=O)Nc3ccncc3)ccc21" ?
## Output < 5

## Input Now the compound "COc1ccc(NC(=O)Nc2ccnc3ccccc23)cc1OC"
## Output < 6.3

## Input Also "Cc1nc2ccc(NC(=O)Nc3ccnc4ncccc34)cc2o1" , if possible.
## Output 6.5

## Input Consider next the compound "O=C(Nc1cccc(Cl)c1)Nc1ccnc2ccccc12" in the same way.
## Output 6.4

## Input Check "COc1ccc(NC(=O)Nc2ccnc3ccccc23)cc1" too.
## Output 6.8

## Input What do you get for "Cc1nc2ccc(NC(=O)Nc3ccnc4cccnc34)cc2o1" ?
## Output 7.4

## Input Query "Cn1ccc2cc(NC(=O)Nc3cccc4ccccc34)ccc21" next
## Output < 6.3

## Input Repeat for the following compound: "CSc1ccc(NC(=O)Nc2ccnc3cccnc23)cc1"
## Output 7.5

## Input Same question, "Nc1ccc(NC(=O)Nc2ccnc3ccccc23)cc1" this time
## Output < 6.1

## Input Try this compound next: "Cn1ccc2cc(NC(=O)Nc3ncnc4ccccc34)ccc21"
## Output < 6.3

## Input What would you report for "CN1CCc2cc(NC(=O)Nc3ccnc4ccccc34)ccc21" ?
## Output 7.6

## Input And "O=C(Nc1ccc2ncoc2c1)Nc1ccnc2ccccc12" ?
## Output 7

## Input What would you report for "COc1cccc(NC(=O)Nc2ccnc3ccccc23)c1" ?
## Output 6.6

## Input Same lookup for "CN(C)c1ccc(NC(=O)Nc2ccnc3ccccc23)cc1Cl" , please.
## Output 7.4

## Input Queued: "O=C(Nc1ccc2c(ccn2Cc2ccccc2)c1)Nc1ccnc2ccccc12"
## Output < 6.1

## Input Ok, now "CSc1ccc(NC(=O)Nc2ccnc3ccccc23)cc1"
## Output 7.9

## Input Lookup "Cn1ccc2cc(NC(=O)Nc3ccnc4cccnc34)ccc21"
## Output 7.3

## Input Here is the next compound: "CN(C)c1cccc(NC(=O)Nc2ccnc3ccccc23)c1"
## Output 6.1

## Input "N#Cc1ccc(NC(=O)Nc2ccnc3ccccc23)cc1" , same question.
## Output < 6.2

## Input Next compound: "O=C(Nc1ccccc1)Nc1ccnc2ccccc12"
## Output < 6.1

## Input Also need "CCN(CC)c1ccc(NC(=O)Nc2ccnc3ccccc23)cc1" , thanks.
## Output 7.4

## Input Consider next the compound "Cc1nc2ccc(NC(=O)Nc3ccnc4ccncc34)cc2o1" in the same way.
## Output 5.9

## Input Now this one: "O=C(Nc1ccc2ocnc2c1)Nc1ccnc2ccccc12"
## Output < 6.2

## Input Would you kindly repeat that for "O=C(Nc1ccc2c(c1)OCCCO2)Nc1ccnc2ccccc12" ?
## Output 7.4

----------
Record form. Attribute: Css. Fill in for each entry.
experimental_details: Steady state concentration was evaluated
Format: ADME
The reply must contain the numeric value and, after it, the unit.

## Input // returns reported Css for input "Cc1nc2ccc(NC(=O)Nc3ccnc4cccnc34)cc2o1"
## Output 490 nM

## Input Please answer likewise for "CSc1ccc(NC(=O)Nc2ccnc3ccccc23)cc1"
## Output 1000 nM

## Input Would you kindly repeat that for "CN(C)c1ccc(NC(=O)Nc2ccnc3ccccc23)cc1" ?
## Output 4200 nM
